molecular target: Muscarinic acetylcholine receptor M4 (Homo sapiens); format: cell membranes, CHO-K1, Membrane; details: cho-k1; also: in other assays of this panel Not Active means under 50% inhibition at 10 µM
Sequence (P08173 whole entry): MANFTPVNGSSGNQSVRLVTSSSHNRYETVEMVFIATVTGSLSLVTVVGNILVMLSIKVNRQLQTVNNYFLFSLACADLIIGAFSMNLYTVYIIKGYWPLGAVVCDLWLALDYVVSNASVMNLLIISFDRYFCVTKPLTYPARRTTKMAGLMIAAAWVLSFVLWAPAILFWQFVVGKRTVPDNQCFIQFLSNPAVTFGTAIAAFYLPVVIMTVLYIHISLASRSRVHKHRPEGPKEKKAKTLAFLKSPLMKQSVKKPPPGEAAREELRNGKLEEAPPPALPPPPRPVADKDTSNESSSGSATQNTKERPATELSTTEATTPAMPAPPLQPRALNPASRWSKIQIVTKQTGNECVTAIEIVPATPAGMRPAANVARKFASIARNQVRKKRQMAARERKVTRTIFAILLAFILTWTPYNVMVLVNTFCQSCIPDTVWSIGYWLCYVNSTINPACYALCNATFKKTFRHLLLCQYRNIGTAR
parameter measured: IC50

Some entries whose results are on file:
compound: CC1=C(/C=C/C(C)=C/C=C/C(C)=C\C(=O)O)C(C)(C)CCC1 [ISOTRETINOIN]
IC50: Not Active
--
compound: CC(C)(S)[C@@H](N)C(=O)O [PENICILLAMINE]
IC50: Not Active
--
compound: CC(=O)S[C@@H]1CC2=CC(=O)CC[C@]2(C)[C@H]2CC[C@@]3(C)[C@@H](CC[C@@]34CCC(=O)O4)[C@H]12 [SPIRONOLACTONE]
IC50: Not Active
--
compound: Oc1c(I)cc(I)c2cccnc12 [IODOQUINOL]
IC50: Not Active
--
compound: COc1ccc2cc(CC(=O)O)ccc2c1
IC50: Not Active

Request: Any idea what its IC50 is? The compound is NCC[C@H](O)C(=O)N[C@@H]1C[C@H](N)[C@@H](O[C@H]2O[C@H](CN)[C@@H](O)[C@H](O)[C@H]2O)[C@H](O)[C@H]1O[C@H]1O[C@H](CO)[C@@H](O)[C@H](N)[C@H]1O [AMIKACIN]
Response: Not Active

Request: Same read-out for CN(C)[C@@H]1C(O)=C(C(N)=O)C(=O)[C@@]2(O)C(O)=C3C(=O)c4c(O)cccc4[C@@](C)(O)[C@H]3C[C@@H]12 [TETRACYCLINE] ?
Response: Not Active
